Test system: Bacillus cereus
Assay: microbe, parasite or virus in culture
Format: functional
Details: 8035
I'd appreciate it if you marked entries yes (1) when MIC is lower than 2 µg/mL and no (0) when it is not.

Illustrative cases are given below, each with its answer.
>>> class_label("C[C@@H]1CN(c2c(F)c(N)c3c(=O)c(C(=O)O)cn(C4CC4)c3c2F)C[C@H](C)N1")
"yes (1)"
>>> class_label("CC1CN(c2c(F)c(N)c3c(=O)c(C(=O)O)cn(C4CC4)c3c2F)CC(C)N1.O=[N+]([O-])c1c(Cl)cc2c(no[n+]2[O-])c1O (stereo not drawn)")
"yes (1)"
>>> class_label("O=C(O)c1cn(C2CC2)c2cc(N3CCNCC3)c(F)cc2c1=O.O=[N+]([O-])c1c(Cl)cc2c(no[n+]2[O-])c1O")
"no (0)"

Exam item: Identify whether the compound CCn1cc(C(=O)O)c(=O)c2cc(F)c(N3CCNC(C)C3)c(F)c21.O=[N+]([O-])c1c(Cl)cc2c(no[n+]2[O-])c1O (stereo not drawn) records MIC below 2 µg/mL.
Marked response: yes (1)

Exam item: Identify whether the compound CCn1cc(C(=O)O)c(=O)c2cc(F)c(N3CCNC(C)C3)c(F)c21 (stereo not drawn) records MIC below 2 µg/mL.
Marked response: no (0)

Exam item: Identify whether the compound `O=C(O)c1cn(C2CC2)c2cc(N3CCNCC3)c(F)cc2c1=O` records MIC below 2 µg/mL.
Marked response: yes (1)

Exam item: Identify whether the compound `CCn1cc(C(=O)O)c(=O)c2cc(F)c(N3CCNCC3)cc21` records MIC below 2 µg/mL.
Marked response: yes (1)

Exam item: Identify whether the compound `CCn1cc(C(=O)O)c(=O)c2cc(F)c(N3CCNCC3)cc21.O=[N+]([O-])c1c(Cl)cc2c(no[n+]2[O-])c1O` records MIC below 2 µg/mL.
Marked response: no (0)
